- system tested: UniProt:P07943
- experiment notes: Inhibition of Rattus norvegicus (rat) kidney aldose reductase using D-L-glyceraldehyde as substRattus norvegicus (rat) e assessed as decrease in NADPH level at 10^-4 M measured for 5 min by spectrophotometric analysis
Listed here are compounds together with their documented inhibition.
Reply with just the number (in %).

Reference set (4 entries):
compound structure	inhibition (%)
O=C1S/C(=C\c2sc(SCc3ccc(Cl)cc3)nc2Cl)C(=O)N1Cc1ccc([N+](=O)[O-])cc1	0
O=C1S/C(=C\c2sc(SCc3ccc(Cl)cc3)nc2Cl)C(=O)N1Cc1ccccc1	0
O=C1S/C(=C\c2sc(SCc3ccc(Cl)cc3)nc2Cl)C(=O)N1Cc1ccc(Cl)cc1Cl	1.56
O=C1S/C(=C\c2sc(N3CCCCC3)nc2Cl)C(=O)N1Cc1ccc([N+](=O)[O-])cc1	2.49

// next entry
Prompt: Name the reported inhibition value associated with the compound O=C1S/C(=C\c2sc(SCc3ccc(Cl)cc3)nc2Cl)C(=O)N1Cc1ccc(F)cc1
Completion: 0

====

- system tested: Aldo-keto reductase family 1 member B1 (Rattus norvegicus) (UniProt P07943)
- experiment notes: Inhibition of Rattus norvegicus (rat) kidney aldose reductase using D-L-glyceraldehyde as substRattus norvegicus (rat) e assessed as decrease in NADPH level at 10^-4 M measured for 5 min by spectrophotometric analysis
endpoint label: inhibition (%)
Response body: numeric value in %, unit text excluded.

Prompt: Which inhibition reading was recorded for the compound O=C1S/C(=C\c2sc(SCc3ccc(Cl)cc3)nc2Cl)C(=O)N1Cc1ccc(Cl)cc1 ?
Completion: 0

Prompt: Follow-up entry: O=C1S/C(=C\c2sc(N3CCCCC3)nc2Cl)C(=O)N1Cc1ccc(Cl)cc1
Completion: 0.62

Prompt: Also need O=C1S/C(=C\c2sc(N3CCCCC3)nc2Cl)C(=O)N1Cc1ccccc1 , thanks.
Completion: 0

Prompt: Try this compound too: O=C1S/C(=C\c2sc(N3CCCCC3)nc2Cl)C(=O)N1Cc1ccc(Br)cc1
Completion: 0.62

Prompt: // repeat for O=C1S/C(=C\c2sc(N3CCCCC3)nc2Cl)C(=O)N1Cc1ccc(Cl)cc1Cl and report
Completion: 3.27

Prompt: And then O=C1S/C(=C\c2sc(N3CCCCC3)nc2Cl)C(=O)N1Cc1ccc(F)cc1 , what is it?
Completion: 0

Prompt: Thanks! And O=C1S/C(=C\c2sc(SCc3ccc(Cl)cc3)nc2Cl)C(=O)N1Cc1ccc(Br)cc1 ?
Completion: 0
